target: GPR119 (Homo sapiens, UniProt Q8TDV5); construct: expressed in transfected cells; experiment: Stimulation of cAMP in CHO cells stably expressing GPR119 (HTRF/FRET cAMP immunoassay); format: cell-based; details: 3 μM compound, 30 min, relative to maximal activity (=100%) of reference agonist 4-(4-{4-Nitro-3-[4-(pyridin-2-ylsulfanyl)-piperidin-1-yl]-phenoxy}-phenyl)-butan-2-one or 4-[6-(4-Methanesulfonyl-phenyl-amino)-5-nitro-pyrimidin-4-yl-oxy]-piperidine-1-carboxylic acid tert-butyl ester
Sequence (Q8TDV5 whole entry, species assumed): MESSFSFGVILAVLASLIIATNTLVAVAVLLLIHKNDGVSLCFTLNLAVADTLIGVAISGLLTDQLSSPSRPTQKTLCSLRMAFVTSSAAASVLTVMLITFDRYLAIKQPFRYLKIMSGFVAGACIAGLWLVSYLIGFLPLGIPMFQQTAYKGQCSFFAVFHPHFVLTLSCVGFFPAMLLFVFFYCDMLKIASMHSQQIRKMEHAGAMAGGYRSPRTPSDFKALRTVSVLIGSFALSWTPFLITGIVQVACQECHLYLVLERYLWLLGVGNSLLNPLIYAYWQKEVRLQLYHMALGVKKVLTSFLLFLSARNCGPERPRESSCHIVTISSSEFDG
Observed property: % Activity at 3 uM (%)
Numbers only here, please. The scale is %.

CC(C)(C)OC(=O)N1CCC(Cn2ncc3c(Oc4ccc(S(C)(=O)=O)cc4)ncnc32)C1 (stereo not shown); 74.66
CC(C)(C)OC(=O)N1CCC(n2ncc3c(Oc4ccc(-n5ccnc5)cc4)ncnc32)CC1; 69.49
CCOC(=O)N1CCC(n2nnc3c(Oc4ccc(S(C)(=O)=O)cc4)ncnc32)CC1; 48.23
CS(=O)(=O)c1ccc(Oc2ncnc3c2cnn3C2CCN(S(=O)(=O)C3CC3)CC2)cc1; 9.73
COc1ccc(Oc2ncnc3c2cnn3C2CCN(C(=O)OC(C)(C)C)CC2)cc1; 69.8
CC(C)(C)OC(=O)N1CCC(n2nnc3c(Oc4ccc(S(C)(=O)=O)cc4)ncnc32)CC1; 59.01

Prompt line: Please give the documented % Activity at 3 uM of CC(C)(C)OC(=O)N1CCC(n2ncc3c(Oc4ccc(Oc5ccc(C(F)(F)F)cc5)cc4)ncnc32)CC1
Response line: 12.73

Prompt line: Please give the documented % Activity at 3 uM of CC(C)(C)OC(=O)N1CCC(n2ncc3c(Oc4ccc(Oc5ccccc5)cc4)ncnc32)CC1
Response line: 56.96

Prompt line: Please give the documented % Activity at 3 uM of CC(C)(C)OC(=O)N1CCC(n2ncc3c(Oc4ccc(S(C)(=O)=O)cc4)ncnc32)CC1
Response line: 59.01

Prompt line: Please give the documented % Activity at 3 uM of Cc1ccc(S(=O)(=O)N2CCC(n3ncc4c(Oc5ccc(S(C)(=O)=O)cc5)ncnc43)CC2)cc1
Response line: 2.07

* * *

molecular target: GPR119 (Homo sapiens, UniProt Q8TDV5); construct: expressed in transfected cells; test: Stimulation of cAMP in CHO cells stably expressing GPR119 (HTRF/FRET cAMP immunoassay); format: cell-based; conditions: 3 μM compound, 30 min, relative to maximal activity (=100%) of reference agonist 4-(4-{4-Nitro-3-[4-(pyridin-2-ylsulfanyl)-piperidin-1-yl]-phenoxy}-phenyl)-butan-2-one or 4-[6-(4-Methanesulfonyl-phenyl-amino)-5-nitro-pyrimidin-4-yl-oxy]-piperidine-1-carboxylic acid tert-butyl ester
Binarize % Activity at 3 uM at 50%; below is met, at or above is not met.

CC(C)(C)OC(=O)N1CCC(Cn2ncc3c(Oc4ccc(S(C)(=O)=O)cc4)ncnc32)CC1 [Example 50]; not met
CN(c1ccc(S(C)(=O)=O)cc1)c1ncnc2c1nnn2C1CCN(C(=O)OC(C)(C)C)CC1 [Example 67]; met
CC(C)(C)OC(=O)N1CCC(n2ncc3c(Sc4ccc(S(C)(=O)=O)cc4)ncnc32)CC1 [Example 5]; not met
CS(=O)(=O)c1ccc(Oc2ncnc3c2cnn3C2CCN(S(=O)(=O)Cc3ccccc3)CC2)cc1 [Example 65]; met

Now for another entry.
Prompt line: I'd appreciate it if you could check whether CC(C)(C)OC(=O)N1CCC(Cn2ncc3c(Oc4ccc(-n5cncn5)cc4)ncnc32)C1 (stereo not drawn) [Example 62] has % Activity at 3 uM smaller than 50%.
Response line: not met
